- EXPERIMENT_SUMMARY: Membrane permeability test of cyclic peptides (Caco-2, modified/improved method of WO 2018/124162)
- CONDITION_INFO: human, Caco-2, Caco-2 (membrane permeability), Table 10, cyclic peptides containing Ser(S-4-F2-Pyrro-Me) (G) or Nva(2-R-4-F2-Pyrro) (H)
*1 amine or outer side, *2 acyl side, *3 side chain or, on linkers, in order; H or OH if unused. Where a SMILES comes first, the peptide text is derived from it. Bridges are numbered along the chain shown (N, C = ends). [ ]: non-standard residue; d: D form. The star is where a group is joined. X5 = O=C([C@H](CCC[C@@H]1CC(F)(F)CN1)N[*:1])[*:2]; Pro(4,4-F2)ψ(CH2) = FC1(F)CN[C@H](C*)C1; NMeF = CN[C@@H](Cc1ccccc1)C(=O)O; NMeL = CN[C@@H](CC(C)C)C(=O)O; NMeAbu = CC[C@H](NC)C(=O)O; Piperidide = C1CCN(*)CC1; dAbu = CC[C@@H](N)C(=O)O; NBuGly = CCCCNCC(=O)O
Would you kindly list Papp for each of these compounds?
Report as a plain number; the unit ×10⁻⁶ cm/s is understood.

Please report the recorded Papp for CCCCN1CC(=O)N(C)[C@@H](CC(C)C)C(=O)N[C@@H](COC[C@@H]2CC(F)(F)CN2)C(=O)N(C)[C@@H](CC(C)C)C(=O)N(C)[C@@H](CC(C)C)C(=O)N[C@H](C(=O)N2CCCCC2)CC(=O)N[C@H](C(C)C)C(=O)N(C)[C@@H](Cc2ccccc2)C(=O)N[C@@H](CC(C)C)C(=O)N(C)[C@@H](CC)C(=O)N[C@@H]([C@@H](C)O)C1=O [Compound G01] ([dV][NMeF]L[NMeAbu]T[NBuGly][NMeL]S(Pro(4,4-F2)ψ(CH2))[NMeL][NMeL]D-Piperidide; lactam N-11) .
0.53

CCCCN1CC(=O)N(C)[C@@H](CC(C)C)C(=O)N[C@@H](CCC[C@@H]2CC(F)(F)CN2)C(=O)N(C)[C@@H](CC(C)C)C(=O)N(C)[C@@H](CC(C)C)C(=O)N[C@H](C(=O)N2CCCCC2)CC(=O)N[C@H](CC)C(=O)N(C)[C@@H](Cc2ccccc2)C(=O)N[C@@H](CC(C)C)C(=O)N(C)[C@@H](CC)C(=O)N[C@@H]([C@@H](C)O)C1=O [Compound H01] ([dAbu][NMeF]L[NMeAbu]T[NBuGly][NMeL][X5][NMeL][NMeL]D-Piperidide; lactam N-11) ?
0.25
